Items are presented alongside their recorded half-life.
test summary: In vivo pharmacokinetic study of VEN and ODV in rats with or without vonoprazan
Set-up: species or system Sprague-Dawley rats
study conditions: male, Sprague-Dawley, rat, plasma, po, 20 mg/kg, t1/2z, rat plasma; VEN 20 mg/kg oral; without vonoprazan (control)
Record the value in h, omitting the unit from your answer.

COc1ccc(C(CN(C)C)C2(O)CCCCC2)cc1 (centres unmarked)    1.39

// next item, half-life requested
For this compound ( CN(C)CC(c1ccc(O)cc1)C1(O)CCCCC1 (centres unmarked) ), measured half-life is 2.05

* * *

test summary: In vivo pharmacokinetic study of VEN and ODV in rats with or without vonoprazan
Design: species or system Sprague-Dawley rats
study conditions: male, Sprague-Dawley, rat, plasma, po, 20 mg/kg, Vz/F, rat plasma; VEN 20 mg/kg oral; without vonoprazan (control)
value kind: Vd/F (L/kg)
Respond numerically; units are L/kg and should not be typed.

COc1ccc(C(CN(C)C)C2(O)CCCCC2)cc1 (centres unmarked) [VEN, Venlafaxine]    187

Next molecule, please.
Vd/F in this record for CN(C)CC(c1ccc(O)cc1)C1(O)CCCCC1 (centres unmarked) [ODV, O-desmethylvenlafaxine] : 374

* * *

Recorded MRT last, one value per entry.
test summary: In vivo pharmacokinetic study of VEN and ODV in rats with or without vonoprazan
Set-up: species or system Sprague-Dawley rats
study conditions: male, Sprague-Dawley, rat, plasma, po, 20 mg/kg, MRT(0-t), rat plasma; VEN 20 mg/kg oral; without vonoprazan (control)
Just the number please, in h, no unit attached.

CN(C)CC(c1ccc(O)cc1)C1(O)CCCCC1 (centres unmarked)    2.82

Pending compound:
For record COc1ccc(C(CN(C)C)C2(O)CCCCC2)cc1 (centres unmarked) the listed MRT last is 2.09

* * *

Consider the following compounds and their measured Tmax readings.
test summary: In vivo pharmacokinetic study of VEN and ODV in rats with or without vonoprazan
Design: species or system Sprague-Dawley rats
study conditions: male, Sprague-Dawley, rat, plasma, po, 20 mg/kg, Tmax, rat plasma; VEN 20 mg/kg oral; without vonoprazan (control)
# output: numeric value plus its unit

CN(C)CC(c1ccc(O)cc1)C1(O)CCCCC1 (centres unmarked)    45 min

Next item in the queue.
Tmax reported for this compound COc1ccc(C(CN(C)C)C2(O)CCCCC2)cc1 (centres unmarked) : 42 min

* * *

test summary: In vivo pharmacokinetic study of VEN and ODV in rats with or without vonoprazan
Set-up: species or system Sprague-Dawley rats
study conditions: male, Sprague-Dawley, rat, plasma, po, 20 mg/kg, AUC(0-∞), rat plasma; VEN 20 mg/kg oral; + vonoprazan 20 mg/kg oral, 7 days
value kind: AUC(0-inf)
# output: number + unit

COc1ccc(C(CN(C)C)C2(O)CCCCC2)cc1 (centres unmarked) [VEN, Venlafaxine]    1920 ng·h/mL

Sure, the documented AUC(0-inf) for CN(C)CC(c1ccc(O)cc1)C1(O)CCCCC1 (centres unmarked) [ODV, O-desmethylvenlafaxine] is 492 ng·h/mL

* * *

Reported AUC(0-t) values for the following molecules.
test summary: In vivo pharmacokinetic study of VEN and ODV in rats with or without vonoprazan
Set-up: species or system Sprague-Dawley rats
study conditions: male, Sprague-Dawley, rat, plasma, po, 20 mg/kg, AUC(0-t), rat plasma; VEN 20 mg/kg oral; without vonoprazan (control)
Write the answer as a number in ng·h/mL, unit excluded.

COc1ccc(C(CN(C)C)C2(O)CCCCC2)cc1 (centres unmarked)    260

Looking up CN(C)CC(c1ccc(O)cc1)C1(O)CCCCC1 (centres unmarked) , I see its AUC(0-t) listed as 155

* * *

Documented Cmax across a set of compounds
test summary: In vivo pharmacokinetic study of VEN and ODV in rats with or without vonoprazan
Parameters: species or system Sprague-Dawley rats
study conditions: male, Sprague-Dawley, rat, plasma, po, 20 mg/kg, Cmax, rat plasma; VEN 20 mg/kg oral; + vonoprazan 20 mg/kg oral, 7 days
// note: answer is a bare numeric in ng/mL

CN(C)CC(c1ccc(O)cc1)C1(O)CCCCC1 (centres unmarked)    109

Value of Cmax reported for the compound COc1ccc(C(CN(C)C)C2(O)CCCCC2)cc1 (centres unmarked) is 525

* * *

test summary: In vivo pharmacokinetic study of VEN and ODV in rats with or without vonoprazan
Parameters: species or system Sprague-Dawley rats
study conditions: male, Sprague-Dawley, rat, plasma, po, 20 mg/kg, Cmax, rat plasma; VEN 20 mg/kg oral; + vonoprazan 5 mg/kg oral, 7 days
value kind: Cmax

COc1ccc(C(CN(C)C)C2(O)CCCCC2)cc1 (centres unmarked) [VEN, Venlafaxine]    261 ng/mL

The record that follows has no Cmax shown yet.
In plain terms, CN(C)CC(c1ccc(O)cc1)C1(O)CCCCC1 (centres unmarked) [ODV, O-desmethylvenlafaxine] has a documented Cmax of 69.7 ng/mL

* * *

test summary: Enzyme kinetics
Format: in vitro ADME
study conditions: rat, rat liver microsomes, pH 7.4
value kind: Km at 30 min (µM)
Express it in µM; write the number only.

Short answer for COc1ccc(C(CN(C)C)C2(O)CCCCC2)cc1 (stereo not shown) [VEN, Venlafaxine] : Km at 30 min was 8.28

* * *

test summary: In vivo pharmacokinetic study of VEN and ODV in rats with or without vonoprazan
Design: species or system Sprague-Dawley rats
study conditions: male, Sprague-Dawley, rat, plasma, po, 20 mg/kg, MRT(0-∞), rat plasma; VEN 20 mg/kg oral; + vonoprazan 20 mg/kg oral, 7 days
Each entry below carries its reported MRT inf.
Write the value in h as a bare number.

COc1ccc(C(CN(C)C)C2(O)CCCCC2)cc1 (centres unmarked)    3.36

Here's the next entry for you.
Reported MRT inf for CN(C)CC(c1ccc(O)cc1)C1(O)CCCCC1 (centres unmarked) was 4.44

* * *

test summary: In vivo pharmacokinetic study of VEN and ODV in rats with or without vonoprazan
Parameters: species or system Sprague-Dawley rats
study conditions: male, Sprague-Dawley, rat, plasma, po, 20 mg/kg, CLz/F, rat plasma; VEN 20 mg/kg oral; + vonoprazan 5 mg/kg oral, 7 days
value kind: CL/F (mL/min/kg)
Answer in mL/min/kg, number only, no unit symbol.

COc1ccc(C(CN(C)C)C2(O)CCCCC2)cc1 (centres unmarked)    500

// next entry
// CL/F value for CN(C)CC(c1ccc(O)cc1)C1(O)CCCCC1 (centres unmarked) : 1510

* * *

test summary: In vivo pharmacokinetic study of VEN and ODV in rats with or without vonoprazan
Parameters: species or system Sprague-Dawley rats
study conditions: male, Sprague-Dawley, rat, plasma, po, 20 mg/kg, MRT(0-t), rat plasma; VEN 20 mg/kg oral; + vonoprazan 20 mg/kg oral, 7 days
value kind: MRT last

COc1ccc(C(CN(C)C)C2(O)CCCCC2)cc1 (centres unmarked)    3.28 h

Next item in the queue.
Looking up CN(C)CC(c1ccc(O)cc1)C1(O)CCCCC1 (centres unmarked) , I see its MRT last listed as 3.92 h

* * *

test summary: In vivo pharmacokinetic study of VEN and ODV in rats with or without vonoprazan
Set-up: species or system Sprague-Dawley rats
study conditions: male, Sprague-Dawley, rat, plasma, po, 20 mg/kg, Vz/F, rat plasma; VEN 20 mg/kg oral; + vonoprazan 5 mg/kg oral, 7 days
Below: a set of entries, each annotated with reported Vd/F.
Use L/kg as the unit, but write only the number.

COc1ccc(C(CN(C)C)C2(O)CCCCC2)cc1 (centres unmarked) [VEN, Venlafaxine]    62.1

Consider the additional compound presented here.
Short answer for CN(C)CC(c1ccc(O)cc1)C1(O)CCCCC1 (centres unmarked) [ODV, O-desmethylvenlafaxine] : Vd/F was 260

* * *

test summary: In vivo pharmacokinetic study of VEN and ODV in rats with or without vonoprazan
Parameters: species or system Sprague-Dawley rats
study conditions: male, Sprague-Dawley, rat, plasma, po, 20 mg/kg, MRT(0-t), rat plasma; VEN 20 mg/kg oral; + vonoprazan 5 mg/kg oral, 7 days
value kind: MRT last (h)
Report only the number, with the unit h understood.

COc1ccc(C(CN(C)C)C2(O)CCCCC2)cc1 (centres unmarked)    2.44

Please examine the following record next.
Reported MRT last for CN(C)CC(c1ccc(O)cc1)C1(O)CCCCC1 (centres unmarked) was 3.08

* * *

test summary: In vivo pharmacokinetic study of VEN and ODV in rats with or without vonoprazan
Parameters: species or system Sprague-Dawley rats
study conditions: male, Sprague-Dawley, rat, plasma, po, 20 mg/kg, AUC(0-t), rat plasma; VEN 20 mg/kg oral; + vonoprazan 20 mg/kg oral, 7 days
value kind: AUC(0-t)
Express the reported value numerically, then name its unit.

COc1ccc(C(CN(C)C)C2(O)CCCCC2)cc1 (centres unmarked)    1.91 µg·h/mL

// switching to the query compound
For this compound ( CN(C)CC(c1ccc(O)cc1)C1(O)CCCCC1 (centres unmarked) ), measured AUC(0-t) is 0.469 µg·h/mL
